B1: r4_43_TrROS_Hall (parent)
chain: DLVTIKVPLENLEEIKKAAEKAGFKIVSISYDKENKEVTIVIEKKK

variants of: B1; experiment: folding stability dG (cDNA display proteolysis); higher = more stable; conditions: PBS, room temperature
parameter: folding stability dG
Number first, unit second: that is the form wanted.

>>> experimentalresult("I15D")
"2.44 kcal/mol"
>>> experimentalresult("I5T")
"3.42 kcal/mol"
>>> experimentalresult("E43I")
"3.54 kcal/mol"
>>> experimentalresult("T4S")
"3.78 kcal/mol"
>>> experimentalresult("V3G")
"3.13 kcal/mol"

We now examine a further variant.
Documented folding stability dG of K36W : 3.66 kcal/mol

// provenance: the MegaScale stability set (Tsuboyama et al. 2023)
